// values below are reported cytotoxicity at 70.5 h
# experiment-summary: Human HepG2 cell viability assay in 384 well format
# Type: toxicity, cell-based
# Set-up: dose 125 nL, time 70.5 hour; concentration not given beside the values
# condition-details: HepG2 cells, read-out: Inhibition
property: cytotoxicity at 70.5 h (%)

1) O=C(Nc1cccnc1)NC1(c2cccc(F)c2)CC1	-14.7
2) COc1ccccc1NC(=O)NCCCC(=O)Nc1cn[nH]c1	13.3
3) CS(=O)(=O)N1C[C@H]2CC[C@@H]1CN(Cc1ccncc1)C2	-10.9
4) Cc1cc(C)n(C2CN(CC(=O)NCC(C)(C)N3CCOCC3)C2)n1	0.262
5) CN(Cc1cc(Br)cn1C)C(=O)c1cc(Cl)ccn1	30.9
6) CC(NC(N)=O)C(=O)NCc1ccc(Br)c(F)c1 (configuration not stated)	0.261
7) CCn1ccnc1CN1CCOC(CNc2cccnn2)C1 (configuration not stated)	-9.35
8) CCN1CCC(Cn2ccc3c(OC)c(OC)ccc3c2=O)C1 (configuration not stated)	-2.32
9) O=C(c1ccsc1)N1CCc2ncc(Cn3cncn3)n2CC1	-14.2
10) CC1c2ncc(COCC3CCOCC3)n2CCN1Cc1cccnc1 (configuration not stated)	-4.06
11) O=C(c1cc[nH]n1)N1CCc2c(nc(N3CCCCC3)[nH]c2=O)C1	-4.43
12) C[C@@H](O)[C@H](NC(=O)c1csc2nc(-c3ccccc3F)cn12)C(N)=O	2.4
13) Cc1ccccc1C1CCN(CCn2cc(-c3nccs3)nn2)C1 (configuration not stated)	49.5
14) COCCN(Cc1ccc(C)cc1)Cc1nccn1C	-0.21
15) CNc1cccc(C2CCN(C(=O)c3cccnc3)CC2)n1	-5.08
16) Cc1ccccc1SC1CCN(C(=O)CCCS(N)(=O)=O)CC1	-5.95
17) Cc1ccsc1C(CNC(=O)c1cc(=O)c2ccccc2[nH]1)N(C)C (configuration not stated)	-9.06
18) Cc1nc(N2CCOCC2)nc2c1CCN(Cc1nccn1C)CC2	-11.2
19) Cc1cc(CN2CC[C@H]3OCC[C@@]3(C(=O)N3CCOCC3)C2)no1	-5
20) CCN1CCN(C(=O)c2ccc3c(c2)NC(=O)CN3)[C@H]2CS(=O)(=O)C[C@H]21	-8.61
21) CCC(=O)N1CCN(C)C(=O)C(Cc2ccccc2-c2cccs2)C1 (configuration not stated)	-1.38
22) O=C1CN(c2ccc(CNC(=O)Nc3nnc(C4CC4)s3)cc2)CCN1	21.5
23) Cc1cc(C)n(CCCNc2ncnc3c2NC(=O)CN3)n1	-8.3
24) CNS(=O)(=O)c1cccc(CNc2ccc(C#N)cn2)c1	-7.11
25) CC(C)n1ccnc1CN1CCOC(CCc2ccccc2)C1 (configuration not stated)	-13.7
26) Cc1ccc(CN(Cc2nc3c(cnn3C)c(=O)[nH]2)C(C)C)s1	-0.211
27) Cc1c(NC(=O)c2cnc[nH]2)cccc1C(=O)NC(C)(C)C	-5.11
28) c1cnc(-c2cnc(N3CCSCC3)nc2C2CCCO2)cn1 (configuration not stated)	-16.8
29) CN(C)C1CCCN(C(=O)NCCC(C)(C)C)C1 (configuration not stated)	16.4
30) CN1CCN(CC2CC2)C(=O)c2cnc(N3CC[C@@H](O)C3)nc21	27.1
31) CCc1ccc(C(NC(=O)CCS(C)(=O)=O)C(C)(C)C)o1 (configuration not stated)	-8.82
32) CCc1oc(C(=O)N[C@@H]2c3ccccc3C[C@@H]2O)cc1C	-5.26
33) Cc1cc(C)cc(NC(=O)Nc2c(O)oc3ccccc3c2=O)c1	-6.68
34) Cc1cccc(CO[C@H]2CO[C@@]3(CCN(S(=O)(=O)N(C)C)C3)C2)n1	15.2
35) CN1CC(C(=O)NCCc2ccc3c(c2)OCO3)CC1=O (configuration not stated)	-8.14
36) CCNc1ccnc(CN2CCCC2C(=O)Nc2nccs2)c1 (configuration not stated)	8.54
37) COc1ccc(C(N)=O)cc1NCc1ncc(C(C)(C)C)o1	-81.1
38) CNC(=O)[C@@H]1CN(C(=O)C(C)C)C[C@H]1c1ccnc(N2CCCC2)n1	-3.61
39) Cc1nc(C2(NCc3cc(C#N)ccc3F)CCCCC2)no1	-17.2
40) CNC(=O)c1cc2c(nc1NCC(C)C)CCN(CCOC)CC2	4.78
41) CN1CCCN(C(=O)c2cnsn2)c2cc(F)ccc21	25.1
42) CCCn1nc2c(cc1=O)CN(CC(=O)Nc1cc(C)no1)CC2	-7.27
43) O=C(CS(=O)(=O)Cc1nnnn1C1CC1)NCCc1ccccc1	-3.81
44) CNC(=O)C1CCN(c2ncc3c(n2)CCN3c2ccccc2)C1 (configuration not stated)	-4.33
45) N#CCSCCCN1CCN(C(=O)C2CCCC2)CC1	-5.88
46) CN(Cc1ccco1)Cc1ccccc1CNC(=O)c1ccc[nH]1	-9.87
47) Cc1ccccc1C(=O)Nc1cnn(CC(=O)NC2CCCC2)c1	-3.04
